As shown below, each of these molecules has a reported viability at 48 h, 5 µM value.
# Assay Details: MTT cell viability assay, compounds at 5, 1 and 0.2 μM, 48 hours
# Type: cell-based
# Particulars: human, A549 tumor cells, 5 μM

# count of solved cases: 5
Given item `COc1nc(Oc2cccc(-c3nnc(Nc4cccc(C(F)(F)F)c4)[nH]3)c2)c2cc[nH]c2n1` , the value recorded as its viability at 48 h, 5 µM is > 70%

Given item `CSc1nc(N)cc(Oc2ccc(-c3nnc(Nc4cc(C)cc(C)c4)[nH]3)cc2)n1` , the value recorded as its viability at 48 h, 5 µM is < 50%

Given item `FC(F)(F)c1cccc(Nc2nnc(-c3ccc(Oc4ncnc5[nH]ccc45)cc3)[nH]2)c1` , the value recorded as its viability at 48 h, 5 µM is 50 to 70%

Given item `Nc1cc(Oc2cccc(-c3nnc(Nc4cccc(C(F)(F)F)c4)[nH]3)c2)ncn1` , the value recorded as its viability at 48 h, 5 µM is > 70%

Given item `CNC(=O)CSc1nc(N)cc(Oc2ccc(-c3nnc(Nc4cccc(C(F)(F)F)c4)[nH]3)cc2)n1` , the value recorded as its viability at 48 h, 5 µM is > 70%

Others:
Given item `CSc1nc(N)cc(Oc2ccc(-c3nnc(Nc4ccc(C)c(C)c4)[nH]3)cc2)n1` , the value recorded as its viability at 48 h, 5 µM is < 50%

Given item `COc1ccc(Nc2nnc(-c3cccc(C(F)(F)F)c3)[nH]2)cc1` , the value recorded as its viability at 48 h, 5 µM is > 70%

Given item `Nc1cc(Oc2ccc(-c3nnc(Nc4cccc(C(F)(F)F)c4)[nH]3)cc2)nc(SCCO)n1` , the value recorded as its viability at 48 h, 5 µM is > 70%

Given item `Cc1cc(Oc2ccc(-c3nnc(Nc4cccc(C(F)(F)F)c4)[nH]3)cc2)c2ccccc2n1` , the value recorded as its viability at 48 h, 5 µM is 50 to 70%

Given item `FC(F)(F)c1cccc(Nc2nnc(-c3ccc(Oc4cc(C(F)(F)F)nc5ccccc45)cc3)[nH]2)c1` , the value recorded as its viability at 48 h, 5 µM is 50 to 70%

Given item `NS(=O)(=O)c1cnccc1Oc1ccc(-c2nnc(Nc3cccc(C(F)(F)F)c3)[nH]2)cc1` , the value recorded as its viability at 48 h, 5 µM is > 70%

Given item `CCOc1cc(Oc2ccc(-c3nnc(Nc4cccc(C(F)(F)F)c4)[nH]3)cc2)nc(N)n1` , the value recorded as its viability at 48 h, 5 µM is > 70%

Given item `Cc1ccc(-c2nnc(Nc3cccc(C(F)(F)F)c3)[nH]2)cc1Oc1ccncc1` , the value recorded as its viability at 48 h, 5 µM is < 50%

Given item `CSc1nc(N)cc(Oc2ccc(Nc3nnc(-c4cccc(Cl)c4)[nH]3)cc2)n1` , the value recorded as its viability at 48 h, 5 µM is 50 to 70%

Given item C[S+]([O-])c1nc(N)cc(Oc2ccc(-c3nnc(Nc4cccc(C(F)(F)F)c4)[nH]3)cc2)n1 (stereo not shown) , the value recorded as its viability at 48 h, 5 µM is 50 to 70%

Given item `COc1cc2ncnc(Oc3cccc(-c4nnc(Nc5cccc(C(F)(F)F)c5)[nH]4)c3)c2cc1OC` , the value recorded as its viability at 48 h, 5 µM is > 70%

Cited source for all entries: patent US9212151B2
